TARGET OF ASSAY: human APJ receptor (Homo sapiens, UniProt P35414)
Construct: expressed in transfected cells; host or cells: HEK293
PROCEDURE TEXT: Intracellular cAMP accumulation assay (APJ hcAMP, HTRF)
Assay type: cell-based
RUN PARAMETERS: hAPJ cAMP EC50 Potency range, HEK293 cells stably expressing human APJ receptor; inhibition of forskolin-mediated cAMP production; Table 2
Method: Intracellular cAMP Accumulation Assay HEK293 cells stably expressing human APJ receptor were used to assess the activity of compounds. Cultured cells were detached and resuspended in the cAMP Homogeneous Time-Resolved Fluorescence (HTRF) assay buffer (Cisbio cat; #62AM4PEJ). […] The fluorescence emission ratio was measured using fluorometer. […] The biological activity of the exemplified compounds of this invention determined by the assay described above is shown at the end of each example.
pEC50: −log10 of the molar value.
ENDPOINT LABEL: pEC50

Lookup: Need pEC50 of CCN(c1ccccc1)c1c(-c2ccn(C)n2)nc(O)c(C(=O)N2CCC(c3ncc(F)cc3F)C2)c1O (stereo not shown) , thanks.
Found: 8.00 to 11.00

====

TARGET OF ASSAY: human APJ receptor (Homo sapiens, UniProt P35414)
Construct: expressed in transfected cells; host or cells: HEK293
PROCEDURE TEXT: Intracellular cAMP accumulation assay (APJ hcAMP, HTRF)
Assay type: cell-based
RUN PARAMETERS: HEK293 cells stably expressing human APJ receptor; inhibition of forskolin-mediated cAMP production; Table 1; read-out: hAPJ cAMP EC50 Potency range
ENDPOINT LABEL: EC50

Record excerpt, results attached:
CCCCc1nc(O)c(S(=O)(=O)c2ccc(-c3ccccc3C(=O)N(C)C)cc2)c(O)c1N1CCCCc2ccccc21; 10 to 100 nM
CCCCc1nc(O)c(S(=O)(=O)c2ccc(-c3ccnc(F)c3C)cc2)c(O)c1N1CCCc2ccccc21; 0.01 to 10 nM
CCN(c1ccccc1)c1c(-c2cccc(C)c2)nc(O)c(S(=O)(=O)c2ccc(-c3ccccc3C(=O)N(C)C)cc2)c1O; 0.01 to 10 nM

--- query ---
Lookup: Need EC50 of CCCCc1nc(O)c(S(=O)(=O)c2ccc(-c3cccnc3C)cc2)c(O)c1N(C)c1cccc(C)c1 , thanks.
Found: 0.01 to 10 nM

====

Listed here: items and their measured EC50.
TARGET OF ASSAY: human APJ receptor (Homo sapiens)
Construct: expressed in transfected cells; host or cells: HEK293
PROCEDURE TEXT: Intracellular cAMP accumulation assay (APJ hcAMP, HTRF)
Assay type: cell-based
RUN PARAMETERS: HEK293 cells stably expressing human APJ receptor; inhibition of forskolin-mediated cAMP production; Table 1; read-out: hAPJ cAMP EC50 Potency range
Description: Intracellular cAMP Accumulation Assay HEK293 cells stably expressing human APJ receptor were used to assess the activity of compounds. Cultured cells were detached and resuspended in the cAMP Homogeneous Time-Resolved Fluorescence (HTRF) assay buffer (Cisbio cat; #62AM4PEJ). […] The fluorescence emission ratio was measured using fluorometer. […] The biological activity of the exemplified compounds of this invention determined by the assay described above is shown at the end of each example.

Record excerpt, results attached:
CCCCc1nc(O)c(S(=O)(=O)c2ccc(-c3ccncc3C)cc2)c(O)c1N(C)c1ccccc1C [Example 203]; 0.01 to 10 nM
CCCCc1nc(O)c(S(=O)(=O)c2ccc(-c3ccccc3C(N)=O)cc2)c(O)c1N1CCCOc2ccccc21 [Example 168]; 0.01 to 10 nM

Lookup: Report EC50 for CCN(c1ccccc1)c1c(-c2cccc(C)c2)nc(O)c(S(=O)(=O)c2ccc(-c3ccncc3C)cc2)c1O [Example 120] tested on human APJ receptor (Homo sapiens).
Found: 0.01 to 10 nM

Lookup: Report EC50 for CCCCc1nc(O)c(S(=O)(=O)c2ccc(-c3ccc(F)nc3C)cc2)c(O)c1N(C)c1ccc(OC)cc1 [Example 032] tested on human APJ receptor (Homo sapiens).
Found: 10 to 100 nM

Lookup: Report EC50 for CCCCc1nc(O)c(S(=O)(=O)c2ccc(-c3ccc(F)nc3)cc2)c(O)c1N(C)c1ccccc1 [Example 012] tested on human APJ receptor (Homo sapiens).
Found: 0.01 to 10 nM

Lookup: Report EC50 for CCCCc1nc(O)c(S(=O)(=O)c2ccc(Br)cc2)c(O)c1N(CC)c1cc(C)cc(C)c1 [Example 134] tested on human APJ receptor (Homo sapiens).
Found: 10 to 100 nM

Lookup: Report EC50 for CCCCc1nc(O)c(S(=O)(=O)c2ccc(-c3ccncc3C)cc2)c(O)c1N1CCCCc2ccccc21 [Example 169] tested on human APJ receptor (Homo sapiens).
Found: 10 to 100 nM

Lookup: Report EC50 for CCCCc1nc(O)c(S(=O)(=O)c2ccc(-c3cccnc3C)cc2)c(O)c1N(C)c1ccccc1 [Example 017] tested on human APJ receptor (Homo sapiens).
Found: 0.01 to 10 nM

Lookup: Report EC50 for CCN(c1ccccc1)c1c(-c2cnn(C)c2)nc(O)c(S(=O)(=O)c2ccc(-c3ccc(F)cc3C(N)=O)cc2)c1O [Example 155] tested on human APJ receptor (Homo sapiens).
Found: 0.01 to 10 nM

Lookup: Report EC50 for CCCCc1nc(O)c(S(=O)(=O)c2ccc(-c3ccncc3C)cc2)c(O)c1N(C)c1ccc(Cl)cc1 [Example 108] tested on human APJ receptor (Homo sapiens).
Found: 0.01 to 10 nM

Lookup: Report EC50 for CCCCc1nc(O)c(S(=O)(=O)c2ccc(-c3ccc(F)nc3C)cc2)c(O)c1N(C)c1cccc(F)c1 [Example 109] tested on human APJ receptor (Homo sapiens).
Found: 10 to 100 nM

====

TARGET OF ASSAY: human APJ receptor (Homo sapiens, UniProt P35414)
Construct: expressed in transfected cells; host or cells: HEK293
PROCEDURE TEXT: Intracellular cAMP accumulation assay (APJ hcAMP, HTRF)
Type: cell-based
RUN PARAMETERS: HEK293 cells stably expressing human APJ receptor; inhibition of forskolin-mediated cAMP production; Table 1; read-out: hAPJ cAMP EC50 Potency range
Listed here: items and their measured EC50.

CCCCc1nc(O)c(S(=O)(=O)c2ccc(-c3ccccc3C(=O)N(C)C)cc2)c(O)c1N(CC)c1cc(C)cc(C)c1; 0.01 to 10 nM
CCCCc1nc(O)c(S(=O)(=O)c2ccc(-c3ccnc(F)c3C)cc2)c(O)c1N(C)c1ccccc1F; 0.01 to 10 nM
CCCCc1nc(O)c(S(=O)(=O)c2ccc(-c3ccnc(F)c3C)cc2)c(O)c1N1CCCCC1c1ccccc1 (stereo not shown); 10 to 100 nM
CCCCc1nc(O)c(S(=O)(=O)c2ccc(-c3ccc(F)nc3C)cc2)c(O)c1N(C)c1ccccc1C; 10 to 100 nM
CCN(c1ccccc1)c1c(CC2CC2)nc(O)c(S(=O)(=O)c2ccc(-c3ccc(F)nc3C)cc2)c1O; 0.01 to 10 nM
CCCCc1nc(O)c(S(=O)(=O)c2ccc(-c3ccncc3C)cc2)c(O)c1N(CC)c1cc(C)cc(C)c1; 0.01 to 10 nM

--- query ---
Lookup: Need EC50 of CCN(c1ccccc1)c1c(-c2cnn(C)c2)nc(O)c(S(=O)(=O)c2ccc(-c3ccccc3C(=O)N(C)C)cc2)c1O , thanks.
Found: 0.01 to 10 nM

====

TARGET OF ASSAY: human APJ receptor (Homo sapiens, UniProt P35414)
Construct: expressed in transfected cells; host or cells: HEK293
PROCEDURE TEXT: Intracellular cAMP accumulation assay (APJ hcAMP, HTRF)
Type: cell-based
RUN PARAMETERS: Human APJ cAMP Potency range, HEK293 cells stably expressing human APJ receptor; inhibition of forskolin-mediated cAMP production
ENDPOINT LABEL: EC50

Lookup: Need EC50 of CCCCc1nc(O)c(C(=O)N2CC[C@@H](c3ccccc3)C2)c(O)c1N(CC)c1ccccc1 [Example 001] , thanks.
Found: 10 to 100 nM

====

TARGET OF ASSAY: human APJ receptor (Homo sapiens)
Construct: expressed in transfected cells; host or cells: HEK293
Sequence (P35414 1-380): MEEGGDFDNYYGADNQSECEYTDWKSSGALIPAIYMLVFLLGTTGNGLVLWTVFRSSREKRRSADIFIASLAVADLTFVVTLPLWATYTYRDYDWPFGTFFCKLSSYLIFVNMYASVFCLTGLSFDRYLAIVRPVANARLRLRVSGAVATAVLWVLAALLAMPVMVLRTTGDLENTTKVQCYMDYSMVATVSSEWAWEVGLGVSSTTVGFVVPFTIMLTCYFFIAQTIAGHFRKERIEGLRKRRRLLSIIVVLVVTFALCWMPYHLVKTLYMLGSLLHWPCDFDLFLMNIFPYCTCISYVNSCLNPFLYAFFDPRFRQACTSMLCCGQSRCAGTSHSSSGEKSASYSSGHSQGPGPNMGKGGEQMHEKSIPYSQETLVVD
PROCEDURE TEXT: Intracellular cAMP accumulation assay (APJ hcAMP, HTRF)
Type: cell-based
RUN PARAMETERS: HEK293 cells stably expressing human APJ receptor; inhibition of forskolin-mediated cAMP production; Table 1; read-out: hAPJ cAMP EC50 Potency range
pEC50: −log10 of the molar value.
Listed here: items and their measured pEC50.

Record excerpt, results attached:
CCN(c1ccccc1)c1c(-c2ccn(C)n2)nc(O)c(S(=O)(=O)c2ccc(-c3ccc(F)nc3C)cc2)c1O; 8.00 to 11.00
CCCCc1nc(O)c(S(=O)(=O)c2ccc(-c3ccnc(F)c3C)cc2)c(O)c1N1CCCCc2ccccc21; 8.00 to 11.00
CCCCc1nc(O)c(S(=O)(=O)c2ccc(Br)cc2)c(O)c1N(C)c1cccc(C)c1; 7.00 to 8.00
CCCCc1nc(O)c(S(=O)(=O)c2ccc(-c3ccccc3C(=O)NC)cc2)c(O)c1N(C)c1cccc(C#N)c1; 8.00 to 11.00
CCCCc1nc(O)c(S(=O)(=O)c2ccc(-c3ccc(F)nc3C)cc2)c(O)c1N1CCCCc2ccccc21; 7.00 to 8.00
CCN(c1ccccc1)c1c(-c2cccc(C)c2)nc(O)c(S(=O)(=O)c2ccc(-c3ccccc3C(=O)NC)cc2)c1O; 8.00 to 11.00

Lookup: Need pEC50 of CCCCc1nc(O)c(S(=O)(=O)c2ccc(-c3ccccc3C(=O)N(C)C)cc2)c(O)c1N(C)c1ccccc1C , thanks.
Found: 8.00 to 11.00

Lookup: Need pEC50 of CCCCc1nc(O)c(S(=O)(=O)c2ccc(-c3cccnc3C)cc2)c(O)c1N1c2ccccc2CCC1C (stereo not shown) , thanks.
Found: 8.00 to 11.00

Lookup: Need pEC50 of CCN(c1cccc(C#N)c1)c1c(-c2ccn(C)n2)nc(O)c(S(=O)(=O)c2ccc(-c3ccc(F)nc3C)cc2)c1O , thanks.
Found: 8.00 to 11.00

Lookup: Need pEC50 of CCCCc1nc(O)c(S(=O)(=O)c2ccc(-c3ccccc3C#N)cc2)c(O)c1N(CC)c1ccccc1 , thanks.
Found: 8.00 to 11.00

Lookup: Need pEC50 of CCCCc1nc(O)c(S(=O)(=O)c2ccc(-n3cc(Cl)ccc3=O)cc2)c(O)c1N(C)c1ccccc1 , thanks.
Found: 8.00 to 11.00

Lookup: Need pEC50 of CCCCc1nc(O)c(S(=O)(=O)c2ccc(-c3ccncc3C)cc2)c(O)c1N(C)c1ccccc1 , thanks.
Found: 8.00 to 11.00
